# TARGET_SYSTEM: UniProtKB P41145
# TEST_METHOD_NOTES: [35S]GTPγS binding, stimulation and inhibition of agonist-stimulated binding
# Type: biochemical
# TEST_PARAMETERS: read-out: Emax (% maximal stimulation)
MEASUREMENT_TYPE: Emax (%)

INSERT INTO results (compound, target_system, units_label, recorded_result) VALUES
  ('C[C@H]1C2Cc3ccc(C(N)=O)cc3[C@@]1(C)CCN2CC1CC1 [Compound 2, 8-carboxamidocyclazocine, reference compound]', 'UniProtKB P41145', '%', 87),
  ('CC1C2Cc3ccc(C(=O)NCCc4ccc(-c5ccccc5)cc4)cc3C1(C)CCN2CC1CC1 (racemic) [Compound 1, reference compound]', 'UniProtKB P41145', '%', 76),
  ('C[C@H]1C2Cc3ccc(C(=O)NCCc4ccc(-c5ccccn5)cc4)cc3[C@@]1(C)CCN2CC1CC1', 'UniProtKB P41145', '%', 50),
  ('C[C@H]1C2Cc3ccc(C(=O)NCCc4ccc(-c5ccccc5)cn4)cc3[C@@]1(C)CCN2CC1CC1', 'UniProtKB P41145', '%', 64),
  ('C[C@H]1C2Cc3ccc(C(=O)NCCc4ccc(-c5ccccc5)nc4)cc3[C@@]1(C)CCN2CC1CC1', 'UniProtKB P41145', '%', 52),
  ('C[C@H]1C2Cc3ccc(C(=O)NCCc4ccc(-c5ccncc5)cc4)cc3[C@@]1(C)CCN2CC1CC1', 'UniProtKB P41145', '%', 64),
  ('C[C@H]1C2Cc3ccc(C(=O)NCCc4ccc(-c5cccnc5)cc4)cc3[C@@]1(C)CCN2CC1CC1', 'UniProtKB P41145', '%', 52);

###

# TARGET_SYSTEM: human μ opioid receptor (Homo sapiens)
# Sequence (P35372 whole entry): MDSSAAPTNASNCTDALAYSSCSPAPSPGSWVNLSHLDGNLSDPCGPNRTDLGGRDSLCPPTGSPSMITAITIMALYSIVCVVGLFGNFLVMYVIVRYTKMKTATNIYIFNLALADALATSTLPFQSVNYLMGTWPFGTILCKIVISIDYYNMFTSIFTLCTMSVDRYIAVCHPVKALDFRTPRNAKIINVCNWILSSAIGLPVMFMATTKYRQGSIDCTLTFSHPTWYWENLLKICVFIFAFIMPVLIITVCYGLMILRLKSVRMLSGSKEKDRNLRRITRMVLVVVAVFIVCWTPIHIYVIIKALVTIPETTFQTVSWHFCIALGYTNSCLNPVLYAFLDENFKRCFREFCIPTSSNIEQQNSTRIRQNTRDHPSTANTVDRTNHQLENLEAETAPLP
# TEST_METHOD_NOTES: [35S]GTPγS binding, stimulation and inhibition of agonist-stimulated binding
# Format: biochemical
# TEST_PARAMETERS: read-out: Emax (% maximal stimulation)
I would appreciate it if you labelled entries True when Emax is 30% or higher, otherwise False.

INSERT INTO results (compound, target_system, class_label) VALUES
  ('C[C@H]1C2Cc3ccc(C(N)=O)cc3[C@@]1(C)CCN2CC1CC1 [Compound 2, 8-carboxamidocyclazocine, reference compound]', 'human μ opioid receptor (Homo sapiens)', 'False'),
  ('C[C@H]1C2Cc3ccc(C(=O)NCCc4ccc(-c5ccncc5)cc4)cc3[C@@]1(C)CCN2CC1CC1', 'human μ opioid receptor (Homo sapiens)', 'True'),
  ('C[C@H]1C2Cc3ccc(C(=O)NCCc4ccc(-c5ccccn5)cc4)cc3[C@@]1(C)CCN2CC1CC1', 'human μ opioid receptor (Homo sapiens)', 'True'),
  ('C[C@H]1C2Cc3ccc(C(=O)NCCc4ccc(-c5cccnc5)cc4)cc3[C@@]1(C)CCN2CC1CC1', 'human μ opioid receptor (Homo sapiens)', 'False'),
  ('C[C@H]1C2Cc3ccc(C(=O)NCCc4ccc(-c5ccccc5)cn4)cc3[C@@]1(C)CCN2CC1CC1', 'human μ opioid receptor (Homo sapiens)', 'False');

###

# TARGET_SYSTEM: human κ opioid receptor (Homo sapiens)
# Sequence (P41145 whole entry): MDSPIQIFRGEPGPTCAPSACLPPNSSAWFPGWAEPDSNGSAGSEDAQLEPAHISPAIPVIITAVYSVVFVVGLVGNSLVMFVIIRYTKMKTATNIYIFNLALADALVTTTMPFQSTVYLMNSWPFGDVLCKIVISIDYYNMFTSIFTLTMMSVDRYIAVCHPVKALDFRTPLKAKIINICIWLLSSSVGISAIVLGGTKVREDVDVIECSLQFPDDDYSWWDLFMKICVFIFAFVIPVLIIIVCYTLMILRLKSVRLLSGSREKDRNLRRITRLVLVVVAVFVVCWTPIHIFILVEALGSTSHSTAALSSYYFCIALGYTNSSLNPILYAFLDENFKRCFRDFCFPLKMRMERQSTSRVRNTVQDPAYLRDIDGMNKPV
# TEST_METHOD_NOTES: [35S]GTPγS binding, stimulation and inhibition of agonist-stimulated binding
# Type: biochemical
# TEST_PARAMETERS: Kappa Opioid Receptor
MEASUREMENT_TYPE: Functional description

INSERT INTO measurements (cpd_smiles, measurement_type, recorded_result) VALUES
  ('C[C@H]1C2Cc3ccc(C(=O)NCCc4ccc(-c5cccnc5)cc4)cc3[C@@]1(C)CCN2CC1CC1', 'Functional description', 'agonist'),
  ('C[C@H]1C2Cc3ccc(C(=O)NCCc4ccc(-c5ccncc5)cc4)cc3[C@@]1(C)CCN2CC1CC1', 'Functional description', 'agonist'),
  ('C[C@H]1C2Cc3ccc(C(=O)NCCc4ccc(-c5ccccc5)nc4)cc3[C@@]1(C)CCN2CC1CC1', 'Functional description', 'agonist'),
  ('C[C@H]1C2Cc3ccc(C(=O)NCCc4ccc(-c5ccccn5)cc4)cc3[C@@]1(C)CCN2CC1CC1', 'Functional description', 'agonist');

Reference source for all entries: paper PMC3602279
